Target: 5-hydroxytryptamine receptor 1A (Homo sapiens, UniProt P08908)
Sequence (P08908 whole entry): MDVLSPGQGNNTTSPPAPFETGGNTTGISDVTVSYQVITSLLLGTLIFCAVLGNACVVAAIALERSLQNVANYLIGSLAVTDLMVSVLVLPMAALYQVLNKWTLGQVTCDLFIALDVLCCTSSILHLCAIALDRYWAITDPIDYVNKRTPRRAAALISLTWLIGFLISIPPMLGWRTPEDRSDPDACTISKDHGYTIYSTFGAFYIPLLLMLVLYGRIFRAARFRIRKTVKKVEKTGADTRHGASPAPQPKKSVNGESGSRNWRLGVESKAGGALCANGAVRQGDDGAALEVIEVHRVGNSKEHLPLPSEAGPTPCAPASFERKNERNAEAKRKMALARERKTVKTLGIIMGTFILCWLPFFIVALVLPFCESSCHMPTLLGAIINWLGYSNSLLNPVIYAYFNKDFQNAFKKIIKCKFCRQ
Experiment: Binding affinity at human 5-hydroxytryptamine 1A receptor by inhibition of [3H]8-OH-DPAT binding in Chinese hamster ovary cell line
Property label: Ki (µM)

# Compound, Unit descriptor, Experimental result
measured = [
    ("O[C@@H]1c2ccc(F)cc2C[C@H]1N1CC=C(c2cccc3c2SCCC3)CC1 (relative stereo)", "µM", 0.0117),
]

(P) O[C@H]1c2ccc(F)cc2C[C@H]1N1CCN(c2cccc3c2OCCC3)CC1 (relative stereo)
(Q) COc1ccc2c(c1)[C@@H](O)[C@H](N1CCC(c3cccc4c3OCCO4)CC1)C2 (relative stereo)
(R) COc1ccc2c(c1)[C@H](O)[C@H](N1CCN(c3cccc4c3OCCO4)CC1)C2 (relative stereo)
**Q:** Sort ascending by Ki. Write the labels in rank order as requested.
**A:** Q, R, P

----------
Molecular target: Adrenergic receptor alpha-1 (Rattus norvegicus, UniProt P15823+P23944+P43140)
Experiment: Binding affinity at Alpha-1 adrenergic receptor by inhibition of [3H]-prazosin binding to rat cortex
Property label: Log Ki

# Compound, Assayed system, Log Ki
measured = [
    ("O[C@@H]1c2ccc(F)cc2C[C@H]1N1CCN(c2cccc3c2OCCC3)CC1 (relative stereo)", "Adrenergic receptor alpha-1 (Rattus norvegicus, UniProt P15823+P23944+P43140)", -6.67),
    ("O[C@@H]1c2cc(F)c(F)cc2C[C@H]1N1CCC(c2cccc3c2OCCO3)CC1 (relative stereo)", "Adrenergic receptor alpha-1 (Rattus norvegicus, UniProt P15823+P23944+P43140)", -7.08),
    ("O[C@@H]1c2ccc(F)cc2C[C@H]1N1CCN(c2cc(Cl)cc3c2OCCO3)CC1 (relative stereo)", "Adrenergic receptor alpha-1 (Rattus norvegicus, UniProt P15823+P23944+P43140)", -6.07),
    ("O[C@@H]1c2ccccc2C[C@H]1N1CC=C(c2cccc3c2OCCO3)CC1 (relative stereo)", "Adrenergic receptor alpha-1 (Rattus norvegicus, UniProt P15823+P23944+P43140)", -7),
]

----------
Assay: Selectivity ratio towards Alpha-1 adrenergic receptor to human 5-hydroxytryptamine 1A receptor
Property label: Ratio

# Compound, Property label, Experimental result
data = [
    ("O[C@@H]1c2ccc(F)cc2C[C@H]1N1CCN(c2cccc3c2OCCC3)CC1 (relative stereo)", "Ratio", 166),
    ("Cc1ccc2c(c1)[C@@H](O)[C@H](N1CCC(c3cccc4c3OCCO4)CC1)C2 (relative stereo)", "Ratio", 66),
    ("Cc1ccc2c(c1)C[C@@H](N1CCC(c3cccc4c3OCCO4)CC1)[C@@H]2O (relative stereo)", "Ratio", 14.5),
    ("O[C@@H]1c2cc(F)c(F)cc2C[C@H]1N1CCC(c2cccc3c2OCCO3)CC1 (relative stereo)", "Ratio", 38),
]

(I) O=[N+]([O-])c1ccc2c(c1)[C@@H](O)[C@H](N1CCN(c3cccc4c3OCCO4)CC1)C2 (relative stereo)
(II) O[C@@H]1c2ccc(F)cc2C[C@H]1N1CCC(c2cc(F)cc3c2OCCC3)CC1 (relative stereo)
**Q:** Min Ratio? I | II // respond with label for picked entry
**A:** II
(II: 11, I: 1260)

----------
Assay: In vitro oral metabolic bioavailability after incubation with hepatic microsomes
Assay type: ADME, Liver
Details: read-out: MF
Property label: Fh (%)

Here's what some known entries look like.
# Compound, Fh (%)
rows = [
    ("O[C@@H]1c2ccc(F)cc2C[C@H]1N1CCN(c2cccc3c2OCCO3)CC1 (racemic)", 65),
    ("O[C@@H]1c2cc(F)c(F)cc2C[C@H]1N1CCC(c2cccc3c2OCCO3)CC1 (relative stereo)", 5),
    ("O[C@@H]1c2cc(F)ccc2C[C@H]1N1CCN(c2cccc3c2OCCO3)CC1 (relative stereo)", 46),
    ("O[C@@H]1c2ccc(F)cc2C[C@H]1N1CC=C(c2cccc3c2OCCO3)CC1 (relative stereo)", 8),
    ("c1ccc2c(c1)CC(N1CCN(c3cccc4c3OCCO4)CC1)C2", 4),
]

(P) O[C@@H]1c2ccc(F)cc2C[C@H]1N1CCC(c2cccc3c2OCCO3)CC1 (relative stereo)
(Q) O[C@@H]1c2ccccc2C[C@H]1N1CCN(c2cccc3c2OCCO3)CC1 (relative stereo)
(R) COc1ccc2c(c1)C[C@@H](N1CCN(c3cccc4c3OCCO4)CC1)[C@@H]2O (racemic)
**Q:** Exam item: list the entries in increasing order of Fh. # the answer lists labels in the order requested
**A:** P, Q, R

----------
Molecular target: 5-hydroxytryptamine receptor 1A (Homo sapiens, UniProt P08908)
Assay: Binding affinity at human 5-hydroxytryptamine 1A receptor by inhibition of [3H]8-OH-DPAT binding in Chinese hamster ovary cell line
pKi: −log10 of the molar value.
Property label: pKi

(I) O[C@@H]1c2ccc(F)cc2C[C@H]1N1CCC(c2cccc3c2OCC3)CC1 (relative stereo)
(II) O[C@H]1c2ccc(F)cc2C[C@H]1N1CCC(c2cccc3c2OCCO3)CC1 (relative stereo)
(III) OCC1COc2c(cc(Cl)cc2N2CCN([C@@H]3Cc4cc(F)ccc4[C@H]3O)CC2)O1 (relative stereo)
(IV) O[C@@H]1c2ccc(F)cc2C[C@H]1N1CCN(c2cccc3c2OCCO3)CC1 (stereo in doubt; (+))
(V) O[C@@H]1c2ccc(F)cc2C[C@H]1N1CCC(c2cccc3c2OCCC3)CC1 (relative stereo)
**Q:** // sort entries: pKi, high to low Labels, requested order.
**A:** V, IV, I, III, II
(V: 9.52, IV: 9.20, I: 8.82, III: 7.98, II: 7.57)

(P) O[C@@H]1c2ccc(F)cc2C[C@H]1N1CCN(c2cc(Cl)cc3c2OCCO3)CC1 (relative stereo)
(Q) O[C@@H]1c2ccccc2C[C@H]1N1CCC(c2cccc3c2OCCO3)CC1 (relative stereo)
**Q:** Rank P against Q by their pKi values and give the higher one. Reply briefly: the label of your chosen item.
**A:** Q

(I) O[C@@H]1c2cc(F)c(F)cc2C[C@H]1N1CCC(c2cccc3c2OCCO3)CC1 (relative stereo)
(II) COc1cc2c(cc1OC)[C@@H](O)[C@H](N1CCC(c3cccc4c3OCCO4)CC1)C2 (relative stereo)
**Q:** # return whichever of I and II has the smaller pKi Write down the label attached to your selection.
**A:** II

(A) O[C@@H]1c2cc(F)ccc2C[C@H]1N1CCN(c2cccc3c2OCCO3)CC1 (relative stereo)
(B) O=[N+]([O-])c1ccc2c(c1)[C@@H](O)[C@H](N1CCC(c3cccc4c3OCCO4)CC1)C2 (relative stereo)
(C) Cc1ccc2c(c1)[C@@H](O)[C@H](N1CCC(c3cccc4c3OCCO4)CC1)C2 (relative stereo)
(D) COc1ccc2c(c1)C[C@@H](N1CCN(c3cccc4c3OCCO4)CC1)[C@@H]2O (stereo in doubt; (+))
(E) COc1ccc2c(c1)C[C@@H](N1CCN(c3cccc4c3OCCO4)CC1)[C@H]2O (relative stereo)
**Q:** Arrange the 5 compounds from largest to smallest pKi. Lab note: final answer is the ordered label list.
**A:** B, C, A, D, E

----------
Test: Selectivity ratio towards Alpha-1 adrenergic receptor to human 5-hydroxytryptamine 1A receptor
Property label: Ratio

# Molecule, Property label, Experimental result
rows = [
    ("COc1ccc2c(c1)C[C@@H](N1CCN(c3cccc4c3OCCO4)CC1)[C@@H]2O (racemic)", "Ratio", 224),
]

(1) O[C@@H]1c2ccccc2C[C@H]1N1CCC(c2cccc3c2OCCO3)CC1 (relative stereo)
(2) O[C@@H]1c2cc(F)ccc2C[C@H]1N1CCN(c2cccc3c2OCCO3)CC1 (relative stereo)
(3) COc1cc2c(cc1OC)[C@@H](O)[C@H](N1CCC(c3cccc4c3OCCO4)CC1)C2 (relative stereo)
(4) OCC1COc2c(cc(Cl)cc2N2CCN([C@@H]3Cc4cc(F)ccc4[C@H]3O)CC2)O1 (relative stereo)
(5) O=[N+]([O-])c1ccc2c(c1)[C@@H](O)[C@H](N1CCC(c3cccc4c3OCCO4)CC1)C2 (relative stereo)
**Q:** // smallest Ratio at index 0, largest at the end // ordering of labels required in reply
**A:** 3, 4, 1, 5, 2

(I) O[C@@H]1c2ccc(F)cc2C[C@H]1N1CCN(c2cc(Cl)cc3c2OCCO3)CC1 (relative stereo)
(II) c1ccc2c(c1)CC(N1CCN(c3cccc4c3OCCO4)CC1)C2
(III) O[C@@H]1c2cc(F)c(F)cc2C[C@H]1N1CCN(c2cccc3c2OCCO3)CC1 (relative stereo)
(IV) O[C@@H]1c2ccc(F)cc2C[C@H]1N1CCC(c2cccc3c2OCC3)CC1 (relative stereo)
(V) O[C@@H]1c2cc(F)ccc2C[C@H]1N1CCC(c2cccc3c2OCCO3)CC1 (relative stereo)
**Q:** Reorder the items by Ratio, least to greatest. Could you list the labels in the order requested?
**A:** IV, V, II, III, I
